Parameter IC50, HIV-1 NL4.3 (X4), PBMC: see the listing below.
target: CXCR4 and CD4 co-expressed on cells (MOLM-13, THP-1, MT-4, PBMC; Jurkat CD4 low) (human, UniProt P61073 1-352; P01730 26-458); experiment: cell-based or functional assay
Sequence (P61073 whole entry, chain 1 of 2, other chains not shown): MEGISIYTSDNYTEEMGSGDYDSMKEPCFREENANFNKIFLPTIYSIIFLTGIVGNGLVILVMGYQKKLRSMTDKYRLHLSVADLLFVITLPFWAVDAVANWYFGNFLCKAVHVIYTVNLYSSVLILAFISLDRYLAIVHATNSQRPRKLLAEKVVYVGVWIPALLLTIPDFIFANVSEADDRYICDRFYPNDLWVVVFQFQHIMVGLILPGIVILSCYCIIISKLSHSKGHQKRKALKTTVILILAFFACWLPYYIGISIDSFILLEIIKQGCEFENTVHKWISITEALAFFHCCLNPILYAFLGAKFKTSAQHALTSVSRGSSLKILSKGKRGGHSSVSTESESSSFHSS
Expressed in nM, but write only the number.

Answered cases to consult:
Binder	IC50, HIV-1 NL4.3 (X4), PBMC / nM
281F12-35GS-03F11 (bispecific antibody, also called CXCR4#2-35GS-CD4#8; CXCR4#2-CD4#8) EVQLVESGGGLVQAGDSLRLSCAASGRAFSRYAMGWFRQAPGKEREFVAAIGWGPSKTNYADSVKGRFTISRDNAKNTVYLQMNTLKPEDTAVYSCAAKFVNTDSTWSRSEMYTYWGQGTQVTVSSGGGGSGGGGSGGGGSGGGGSGGGGSGGGGSGGGGSEVQLVESGGGSVQPGGSLTLSCGTSGRTFNVMGWFRQAPGKEREFVAAVRWSSTGIYYTQYADSVKSRFTISRDNAKNTVYLEMNSLKPEDTAVYYCAADTYNSNPARWDGYDFRGQGTQVTVSS	0.37
281F12-9GS-03F11 (bispecific antibody, also called CXCR4#2-9GS-CD4#8) EVQLVESGGGLVQAGDSLRLSCAASGRAFSRYAMGWFRQAPGKEREFVAAIGWGPSKTNYADSVKGRFTISRDNAKNTVYLQMNTLKPEDTAVYSCAAKFVNTDSTWSRSEMYTYWGQGTQVTVSSGGGSGGGGSEVQLVESGGGSVQPGGSLTLSCGTSGRTFNVMGWFRQAPGKEREFVAAVRWSSTGIYYTQYADSVKSRFTISRDNAKNTVYLEMNSLKPEDTAVYYCAADTYNSNPARWDGYDFRGQGTQVTVSS	0.03
03F11-9GS-281F12 (bispecific antibody) EVQLVESGGGSVQPGGSLTLSCGTSGRTFNVMGWFRQAPGKEREFVAAVRWSSTGIYYTQYADSVKSRFTISRDNAKNTVYLEMNSLKPEDTAVYYCAADTYNSNPARWDGYDFRGQGTQVTVSSGGGGSGGGGSEVQLVESGGGLVQAGDSLRLSCAASGRAFSRYAMGWFRQAPGKEREFVAAIGWGPSKTNYADSVKGRFTISRDNAKNTVYLQMNTLKPEDTAVYSCAAKFVNTDSTWSRSEMYTYWGQGTQVTVSS	17

Then this binder:
Field request: IC50, HIV-1 NL4.3 (X4), PBMC | item: 03F11-25GS-281F12 (bispecific antibody) EVQLVESGGGSVQPGGSLTLSCGTSGRTFNVMGWFRQAPGKEREFVAAVRWSSTGIYYTQYADSVKSRFTISRDNAKNTVYLEMNSLKPEDTAVYYCAADTYNSNPARWDGYDFRGQGTQVTVSSGGGGSGGGGSGGGGSGGGGSGGGGSEVQLVESGGGLVQAGDSLRLSCAASGRAFSRYAMGWFRQAPGKEREFVAAIGWGPSKTNYADSVKGRFTISRDNAKNTVYLQMNTLKPEDTAVYSCAAKFVNTDSTWSRSEMYTYWGQGTQVTVSS
8.67
